# targetEntity: T1, human CD47 (human, UniProt Q08722 19-139)
# T1 construct: extracellular domain; also called CD47 ECD
# T1 sequence (Q08722 19-139 limits assumed): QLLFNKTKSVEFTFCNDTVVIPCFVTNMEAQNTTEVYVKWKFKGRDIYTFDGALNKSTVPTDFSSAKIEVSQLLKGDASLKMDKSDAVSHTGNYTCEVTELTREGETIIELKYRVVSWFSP
# protocolSummary: SPR (Biacore T100 and ProteOn XPR36)
pKd: −log10 of the molar value.
Reported pKd values follow for various binders

[
  {
    "binder": "SIRP-α D1 variant polypeptide of SEQ ID NO: 198 (receptor) EEELQIIQPDKSVLVAAGETATLRCTITSLYPVGPIQWFRGAGPGRELIYNQREGPFPRVTTVSDTTKRNNMDFSIRIGAITPADAGTYYCVKFRKGSPDDVEFKSGAGTELSVRAKPS",
    "pKd": 9.81
  },
  {
    "binder": "SIRP-α D1 variant polypeptide of SEQ ID NO: 209 (receptor) EEELQIIQPDKSVLVAAGETATLRCTITSLYPVGPIQWFRGAGPGRELIYNQRDGPFPRVTTVSDTTKRNNMDFSIRIGAITPADAGTYYCVKFRKGIPDDVEFKSGAGTELSVRAKPS",
    "pKd": 9.00
  },
  {
    "binder": "SIRP-α-Fc fusion, homodimer of SEQ ID NO: 136 (Fc fusion) EEELQIIQPDKSVLVAAGETATLRCTITSLFPVGPIQWFRGAGPGRELIYNQREGPFPRVTTVSDTTKRNNMDFSIRIGAITPADAGTYYCVKFRKGSPDDVEFKSGAGTELSVRAKPSDKTHTCPPCPAPEAAGAPSVFLFPPKPKDTLMISRTPEVTCVVVDVSHEDPEVKFNWYVDGVEVHNAKTKPREEQYASTYRVVSVLTVLHQDWLNGKEYKCKVSNKALPAPIEKTISKAKGQPREPQVYTLPPSREEMTKNQVSLTCLVKGFYPSDIAVEWESNGQPENNYKTTPPVLDSDGSFFLYSKLTVDKSRWQQGNVFSCSVMHEALHNHYTQKSLSLSPG",
    "pKd": 9.86
  },
  {
    "binder": "SIRP-α D1 variant polypeptide of SEQ ID NO: 199 (receptor) EEELQIIQPDKSVLVAAGETATLRCTITSLFPVGPIQWFRGAGPGRELIYNQRDGPFPRVTTVSDTTKRNNMDFSIRIGAITPADAGTYYCVKFRKGSPDDVEFKSGAGTELSVRAKPS",
    "pKd": 8.90
  },
  {
    "binder": "SIRP-α D1 variant polypeptide of SEQ ID NO: 207 (receptor) EEELQIIQPDKSVLVAAGETATLRCTITSLYPVGPIQWFRGAGPGRELIYNQRDGPFPRVTTVSDTTKRNNMDFSIRIGAITPADAGTYYCVKFRKGSPDDVEFKSGAGTELSVRAKPS",
    "pKd": 8.98
  }
]
